target: recombinant wild-type (wt) human kallikrein 2 (human, UniProt P20151 25-261); assay: cell-based or functional assay
No end group written: not given here.
Measured inhibition of individual entries
Give the value in % but do not write % after it.

Example entries begin here.
>  <BINDER>
GVTAG-OH [GVTAG (SEQ ID NO:38)]

>  <NUMERIC_VALUE>
0

$$$$
>  <BINDER>
GAARRPAPAPSG [GAARRPAPAPSG (SEQ ID NO:11)]

>  <NUMERIC_VALUE>
75

$$$$
>  <BINDER>
GAARRPFAAPSG [GAARRPFAAPSG (SEQ ID NO:12)]

>  <NUMERIC_VALUE>
24

$$$$

## Input Quick one: inhibition of GAARRPFPAASG [GAARRPFPAASG (SEQ ID NO:13)] ?
## Output 69

## Input Form field: reported inhibition of AAARRPAPG [AAARRPAPG (SEQ ID NO:46)]
## Output 51

Recorded values, source patent US20090214427A1.
